Attribution: ChEMBL document CHEMBL5614452

# experiment: Inhibition of alpha-chymotrypsin (unknown origin) using N-Benzoyl-L-tyrosine ethyl ester as substrate preincubated for 5 mins followed by substrate addition and measured every 1 min for 10 mins by microplate reader assay
# Set-up: species or system Homo sapiens
assay endpoint: pKi
Give bare numbers, as −log10 of the molar value.

Looking for the measured pKi of COc1ccc(-c2cc(N)n(C(=O)c3ccc4[nH]cnc4c3)n2)cn1 , can you help? 5.56

###

# experiment: Stability in DMEM/F-12 medium assessed as compound remaining at 10 uM after 8 hrs by LC-MS/MS analysis
# Type: physicochemical
# condition parameters: read-out: Stability
Consider the following molecules; for each one, report its remaining at 8 h, 10 µM.

Record remaining at 8 h, 10 µM for all entries; do not skip any.
1. COc1ccc(C(=O)n2nc(-c3cccnc3)nc2N)cc1OC
2. COc1ccc(-c2cc(N)n(C(=O)c3ccc4[nH]cnc4c3)n2)cn1

1. ~4%
2. ~47%

###

# experiment: Aqueous solubility of compound incubated for 1 hr by HPLC analysis
# Type: physicochemical
assay endpoint: solubility at 1 h (µM)
Numbers only, in µM.

Which measured solubility at 1 h value corresponds to COc1ccc(-c2cc(N)n(C(=O)c3ccc4[nH]cnc4c3)n2)cn1 ? 27
